Target sequence: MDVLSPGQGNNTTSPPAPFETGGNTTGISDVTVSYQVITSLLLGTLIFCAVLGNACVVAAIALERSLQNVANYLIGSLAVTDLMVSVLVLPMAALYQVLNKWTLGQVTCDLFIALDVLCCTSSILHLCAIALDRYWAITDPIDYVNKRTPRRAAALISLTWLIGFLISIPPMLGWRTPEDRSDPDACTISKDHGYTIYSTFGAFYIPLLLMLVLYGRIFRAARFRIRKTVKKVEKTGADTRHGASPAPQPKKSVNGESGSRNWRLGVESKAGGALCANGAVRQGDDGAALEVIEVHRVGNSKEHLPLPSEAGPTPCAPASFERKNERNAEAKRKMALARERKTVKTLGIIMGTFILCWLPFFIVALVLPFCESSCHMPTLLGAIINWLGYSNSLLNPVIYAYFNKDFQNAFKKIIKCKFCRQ
pKi: −log10 of the molar value.
pKi for the protein given by its sequence - collated from the literature.
Cut-off 7 on pKi, inclusive. At or above means T; below means F.

Take a look at these entries with their results.
CCCN(CCc1c[nH]c2ccc(F)cc12)C1COc2c(F)ccc(C(N)=O)c2C1 (racemic)
T
CC(=O)c1ccc(OCc2ccc(Oc3cc(-c4nn[nH]n4)ccn3)cc2)c(C)c1O
F

Enquiry: Record "N#Cc1cc(F)cc(C#Cc2csc(CF)n2)c1" ; criterion: pKi no lower than 7. Met?
Return: F

Enquiry: Next record, please: OCC(CN1CCC(Cc2ccccc2)CC1)OC(c1ccccc1)c1ccccc1 (configuration not stated)
Return: F
